Could you please report measured yeast fitness for the items listed next?
B1: tRNA (parent)
chain: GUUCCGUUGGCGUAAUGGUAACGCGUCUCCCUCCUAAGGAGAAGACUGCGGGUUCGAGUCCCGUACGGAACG

Variants of: B1
Measurement Notes: yeast fitness relative to wild type (ratio to wild type); higher = fitter; tRNA-Arg(CCU), competitive growth, 37 C, YPD
This sample holds only a part of the variants without activity.

The cases that follow already have their yeast fitness on record.
**Query** Any idea what its yeast fitness is? The variant is GUUCCGUUGGCGUCAUGGUAACGCGUCUCCCUCCUAAGGAGAAGACUGCGGGUUCGGGUCCCGUACGGUACG
**Result** ≤ 0.5

**Query** Any idea what its yeast fitness is? The variant is GUUCUGUUGGCGUAAUGGUAACGCGACUCCCUCCUAAGGAGAAGACUCCGGGUUCGGGUCCCGUACGGAACG
**Result** ≤ 0.5

**Query** Any idea what its yeast fitness is? The variant is GUACCGUUGGCGUAAUGGUAACGCGUCUCCCUCCUUAGGAGAAGACUGCGGGUUAGAGUCCUGUACGGAACG
**Result** ≤ 0.5

**Query** Any idea what its yeast fitness is? The variant is GUUCUGUUGGCGUGAUGGUAACGUGUCCCCCUCCUAAGGAGAAGACUGCGGGUUCGAGUCCCGUACGGAACG
**Result** ≤ 0.5

**Query** Any idea what its yeast fitness is? The variant is GUUCCGUUGGCGUAAUGGUAACGCGUCUCCCUCCUAAGGAGAAGACUGCGGGUUCGAGUACCGUACGGCACG
**Result** 0.752

**Query** Any idea what its yeast fitness is? The variant is GUUCCGUUGGCGGAAUGGUAACGCGUCGCCCUCCUAAGGAGAAGACUGCGGGUUCGAGUCCCGUACGGAACG
**Result** 0.59

For each of the variants below, state yeast fitness.
1. GUUCCGUUGGCCUCAUGGUAACGCGUCUCCCUCCUAAGGAGAAGACUGCGGGUUCGAGUGCCGUACGGAACG
2. GUUCGGUUGGCGUAAUGGUAGCGCGUGUCCCUCGUAAGGAGACGAGUGCGGGUUCGAGUCCCGUACGGAUCG
3. GUUCCCGUGGCGUAAUGGUAACGCGUCUCCCUCCUAAGGAGAUGACUGCGGGUUCGAGUCCCGUCCGGAACG
4. GUUCCGUUGGCGUAAUGGUAACGCGUCUCCCUCCUUAGGAGAAAACUGCGGGUUCGAGUCCCGUACGGAACG
5. GUUGCGUUGGCGUAAUGGUAACGCGUAUCCCGCCUAAGUACAAGACUGCGGGUUCGAGUCCCGUAGGGAACG
6. GUUCCGUUGGCGUAAUGGUAAUGCGUCUCCCUCCUAAGGAGAAAAGUGCGAGUUCGAGUCCCGUAGGGAACG

**Result**
[0.618, 0.569, 0.825, 0.578, "≤ 0.5", "≤ 0.5"]

For each of the variants below, state yeast fitness.
1. GUUGCGUUGGCGUAAUGGUAACGCGUCUCCCUCCUAAGGAGAAGACUGCGGGUUAGAGUCCCGUACGGAACG
2. GUUCCGUUGGCGUAAUGGUAACGCGUCUCCCUCGUAAGGAGCAGAUUGCGGGUAGGACUCCCGUAAGGAACG
3. GUUCCGUUGCCGUAAUGGUAACGCGUCUCCCUCCUAAGGAGAAGACUGCGGGUUCGCGUCCCGAACGGAACG
4. GUUCCGUUGGCGUAAUGGUAACGCGUCUCCCUCUUAAGGAGAAGACUGUGGGUUCGAGUCCCGUCCGGAACG
5. GUGCCGUUGGCGAAAAGGUAACGCGUCUCCCUCCUAAGGAGAAGACUGCGGGUUCGAGUCCCGUACGGAACG
6. GUUCCGUUGGCGUAAUGGUAACGCGUCUCCCUCCUAAGGACAAGACUGCGGGUUCGUGUCCCGCACGGAACG

**Result**
0.778
≤ 0.5
≤ 0.5
0.612
0.65
≤ 0.5

For each of the variants below, state yeast fitness.
1. GUUCCGUUGGCGUAAUGGUAACGCAUCUCCCUCCUAAGGAGAAGACUGCGGAUUCGAGUCCCGUACGGAACG
2. GUUCCGUUGGCGUAAUGGUAACGUGUCUCCCUCCUAAGGAAAAGACUGCGGGUUCGAGUCCCGUACGAAACG
3. GUUCCGUUGGCGAAAUGGUAACGCGUCUCCCUCCUAAGGAGAAGAUUGCGGGUUCGAGUCCCGCACGGUACG

**Result**
1: 0.572; 2: ≤ 0.5; 3: ≤ 0.5
